# assay_system: human D3 dopamine receptor (Homo sapiens (Human), UniProt P35462)
# Sequence (P35462 whole entry): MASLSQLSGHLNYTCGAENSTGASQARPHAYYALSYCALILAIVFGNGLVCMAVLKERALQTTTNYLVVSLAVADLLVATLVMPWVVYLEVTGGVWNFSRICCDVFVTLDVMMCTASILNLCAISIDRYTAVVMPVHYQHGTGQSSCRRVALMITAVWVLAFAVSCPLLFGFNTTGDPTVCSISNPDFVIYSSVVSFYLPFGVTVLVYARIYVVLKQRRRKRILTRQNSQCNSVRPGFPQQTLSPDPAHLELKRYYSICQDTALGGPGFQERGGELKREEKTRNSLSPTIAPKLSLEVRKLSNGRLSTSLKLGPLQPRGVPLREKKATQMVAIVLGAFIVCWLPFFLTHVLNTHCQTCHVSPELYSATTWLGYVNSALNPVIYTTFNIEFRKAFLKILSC
# assay_remarks: Whole Cell Adenylyl Cyclase Assay, D3
# Assay type: cell-based
# condition_summary: inhibition of forskolin (100 μM) stimulated cAMP, normalized to quinpirole; compound conc ≥10× Ki (per compound); mean ± S.E.M.
D3 Cyclase % Inhibition Normalized values for the molecules below.
value_kind: D3 Cyclase % Inhibition Normalized (%)

> print(dat)
                                    molecule                              assay.system  quantitative.readout
 1  CC(C)(C)c1nc(N2CCN(CCCCNC(=O)N3CCC(c4ccccc4)CC3)CC2)cc(C(F)(F)F)n1  human D3 dopamine receptor (Homo sapiens (Human), UniProt P35462)                  64.3
 2  Cc1cc(N2CCN(CCCCNC(=O)N3CCN(c4ccccc4)CC3)CC2)nc(C(C)(C)C)n1  human D3 dopamine receptor (Homo sapiens (Human), UniProt P35462)                  73.4
 3  CC(C)(C)c1nc(N2CCN(CCCCNC(=O)c3cn4nc(Cl)ccc4n3)CC2)cc(C(F)(F)F)n1  human D3 dopamine receptor (Homo sapiens (Human), UniProt P35462)                  31.5
 4  O=C(NCCCCN1CCN(c2ccnc3ccccc23)CC1)C1CCC(c2ccccc2)CC1 (stereo not drawn)  human D3 dopamine receptor (Homo sapiens (Human), UniProt P35462)                  53.4
 5  CN(C)Cc1c(C(=O)NCCCCN2CCN(c3cc(C(F)(F)F)nc(C(C)(C)C)n3)CC2)nc2ccccn12  human D3 dopamine receptor (Homo sapiens (Human), UniProt P35462)                  47.4
 6  N#Cc1cc(N2CCN(CCCCNC(=O)N3CCN(c4ccccc4)CC3)CC2)cc(C(F)(F)F)c1  human D3 dopamine receptor (Homo sapiens (Human), UniProt P35462)                   8.2
 7  CC(C)(C)c1nc(N2CCN(CCCCNC(=O)N3CCN(c4ncccn4)CC3)CC2)cc(C(F)(F)F)n1  human D3 dopamine receptor (Homo sapiens (Human), UniProt P35462)                  40.8
 8  CC(C)(C)c1nc(N2CCN(CCCCNC(=O)c3cn4ccccc4n3)CC2)cc(C(F)(F)F)n1  human D3 dopamine receptor (Homo sapiens (Human), UniProt P35462)                  27.7
 9  CC(C)(C)c1nc(N2CCN(CCCCNC(=O)c3cn4ccncc4n3)CC2)cc(C(F)(F)F)n1  human D3 dopamine receptor (Homo sapiens (Human), UniProt P35462)                  37.8
10  Cc1cc(N2CCN(CCCCNC(=O)N3CCC(n4c(=O)[nH]c5ccccc54)CC3)CC2)nc(C(C)(C)C)n1  human D3 dopamine receptor (Homo sapiens (Human), UniProt P35462)                  11.6
11  CC(C)(C)c1nc(N2CCN(CCCCNC(=O)N3CCN(c4cccc(C#N)c4)CC3)CC2)cc(C(F)(F)F)n1  human D3 dopamine receptor (Homo sapiens (Human), UniProt P35462)                  20.0
12  CC(C)(C)c1nc(N2CCN(CCCCNC(=O)N3CCN(c4cccnc4)CC3)CC2)cc(C(F)(F)F)n1  human D3 dopamine receptor (Homo sapiens (Human), UniProt P35462)                   9.1
13  CC(C)(C)c1nc(N2CCN(CCCCNC(=O)N3CCN(c4ccccn4)CC3)CC2)cc(C(F)(F)F)n1  human D3 dopamine receptor (Homo sapiens (Human), UniProt P35462)                  60.9
14  O=C(NCCCCN1CCN(c2cccc(Cl)c2Cl)CC1)N1CCN(c2ccccc2)CC1  human D3 dopamine receptor (Homo sapiens (Human), UniProt P35462)                  66.4
15  COc1ccc2c(c1)CN(C(=O)NCCCCN1CCN(c3cc(C(F)(F)F)nc(C(C)(C)C)n3)CC1)C2  human D3 dopamine receptor (Homo sapiens (Human), UniProt P35462)                  30.0
